system: LOC_OS01G60330-cb001; assay: thermal shift delta Tm vs DMSO control; higher = stronger stabilization (binding); conditions: 12.5 µM; protein concentration 2 µM;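 also: purified Escherichia coli-expressed rice kinase domain construct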
Label scheme for thermal shift delta Tm: lower than 1 °C is 0.0, 1 °C and above is 1.0.

Could you please find out whether "COc1cc2ncc(-c3ccccc3)nc2cc1OC" has thermal shift delta Tm that meets 1 °C or exceeds it?
1.0

Answer whether thermal shift delta Tm of "C=CC(=O)Nc1cccc(Sc2nc(Nc3ccc(N4CCN(C)CC4)cc3)ncc2Cl)c1" is greater than or equal to 1 °C.
1.0

In plain terms: is recorded thermal shift delta Tm at least 1 °C for "CN1C(=O)[C@@H](NC(=O)c2n[nH]c(Cc3ccccc3)n2)COc2ccccc21" ?
0.0

Form field: thermal shift delta Tm at least 1 °C? Entry: "Cc1ccc(NC(=O)c2ccc(CN3CC[C@H](N(C)C)C3)c(C(F)(F)F)c2)cc1Nc1nccc(-c2cncnc2)n1"
0.0

Could you please find out whether Cc1ccc(C(=O)Nc2ccc(CN3CCN(C)CC3)c(C(F)(F)F)c2)cc1C#Cc1cnc2[nH]ncc2c1 [GZD824 Dimesylate] has thermal shift delta Tm that meets 1 °C or exceeds it?
1.0

Quick check, thermal shift delta Tm >= 1 °C? "c1ccc(-c2[nH]ncc2-c2ccnc3ccccc23)nc1"
0.0

Has Cc1cccc(Nc2nc(NC3CCCCC3N)ncc2C(N)=O)c1 (centres undefined) a recorded thermal shift delta Tm greater than or equal to 1 °C?
1.0

Decide: is the reported value of thermal shift delta Tm for "Cc1ccc(Nc2cc(N[C@@H]3CCCC[C@@H]3N)nnc2C(N)=O)nc1C" equal to or greater than 1 °C?
1.0

Assess whether reported thermal shift delta Tm for "Oc1cc(CNC(=S)/C=C/c2cc(O)c(O)c(Br)c2)cc(O)c1O" sits at 1 °C or higher.
1.0

* * *

Give measured thermal shift delta Tm for each item. Keep answers brief.
tested on: LOC_OS02G17970-cb001; assay: thermal shift delta Tm vs DMSO control; higher = stronger stabilization (binding); details: 12.5 µM; protein concentration 2 µM
Where a name gives a salt, the structure may show the parent alone.
Entry rule: numbers only, all in °C.

Write down the reported thermal shift delta Tm (system: LOC_OS02G17970-cb001) of "Cc1ccc(Nc2cc(N[C@@H]3CCCC[C@@H]3N)nnc2C(N)=O)nc1C"
1.48

Specify the recorded thermal shift delta Tm for "O=C(/C=C/c1ccc2ccccc2n1)c1ccncc1" , system: LOC_OS02G17970-cb001.
1.05

With LOC_OS02G17970-cb001 as the test system, provide measured thermal shift delta Tm for this compound: "Cc1ncc(-c2ccnc(Nc3ccc(S(C)(=O)=O)cc3)n2)n1C(C)C"
1.78

State thermal shift delta Tm on LOC_OS02G17970-cb001. Entry: "NC(=O)c1ncn([C@@H]2O[C@H](CO)[C@@H](O)[C@H]2O)c1N"
0.71

Please indicate recorded thermal shift delta Tm of "CCN1CCN(Cc2ccc(-c3cc4c(N[C@H](C)c5ccccc5)ncnc4[nH]3)cc2)CC1" measured with LOC_OS02G17970-cb001.
0.8

Report thermal shift delta Tm under test system LOC_OS02G17970-cb001 for "N#Cc1cccc(-c2c[nH]c3ncnc(N4CCOCC4)c23)c1" .
0.73

Find the measured thermal shift delta Tm of "N#C/C(=C(/N)Sc1ccc(N)cc1)c1ccccc1C(F)(F)F" with LOC_OS02G17970-cb001 as test system.
0.43

State recorded thermal shift delta Tm with LOC_OS02G17970-cb001, entry "Cc1cn(-c2cc(NC(=O)c3ccc(C)c(Nc4nccc(-c5cnccn5)n4)c3)cc(C(F)(F)F)c2)cn1" , no comment.
1.82

Find the measured thermal shift delta Tm of CCCCCCCCc1ccc(CCC(N)(CO)CO)cc1 [Fingolimod (FTY720) HCl] with LOC_OS02G17970-cb001 as test system.
-0.74

With LOC_OS02G17970-cb001 as the test system, provide measured thermal shift delta Tm for this compound: "Cc1nc2ccc(-n3ncc(C(=O)c4cc5ccccc5[nH]4)c3N)cc2[nH]1"
1.37

Lab note: record thermal shift delta Tm of "C=CC(=O)Nc1cccc(Nc2nc(Nc3ccc(OCCOC)cc3)ncc2F)c1" tested on LOC_OS02G17970-cb001.
0.13

GET thermal shift delta Tm | system: LOC_OS02G17970-cb001 | item: "CCNC(=O)Nc1ccc(-c2nc(N3CCOC[C@@H]3C)c3c(n2)C(C)(C)S(=O)(=O)C3)cc1"
-0.21

State the measured thermal shift delta Tm (LOC_OS02G17970-cb001) of COc1ccc(COc2cc3oc(=O)c4cc(C(C)O)ccc4c3cc2OC)cc1 (centres undefined)
0.5

Provide measured thermal shift delta Tm on LOC_OS02G17970-cb001 for "O=c1cc(-c2cccc3c2Sc2ccccc2S3)oc(N2CCOCC2)c1" please.
0.59

// fetch thermal shift delta Tm for "COc1ccc2[nH]cc(/C=C3\C(=O)Nc4ccc(NC(=O)CCN5CCCCC5)cc43)c2c1" ; system: LOC_OS02G17970-cb001
1.88

Name the value of thermal shift delta Tm reported for "CN1CCN(Cc2ccc(-c3cnc4[nH]cc(-c5ccc6[nH]ccc6c5)c4c3)cc2)CC1" when tested on LOC_OS02G17970-cb001.
0.97

For LOC_OS02G17970-cb001, give the measured thermal shift delta Tm of the entry CC(C)c1c2cc(-c3ccnc(NC4CCC(NC5CCOCC5)CC4)n3)ccc2nn1C (centres undefined)
0.57

State thermal shift delta Tm (LOC_OS02G17970-cb001) of "Nc1cc(C(F)(F)F)c(-c2cc(N3CCOCC3)nc(N3CCOCC3)n2)cn1" .
0.37

State thermal shift delta Tm on LOC_OS02G17970-cb001. Entry: "Cc1ncc(CO)c(CO)c1O"
0.66

* * *

tested on: LOC_OS05G28520-cb001; experiment: thermal shift delta Tm vs DMSO control; higher = stronger stabilization (binding); conditions: 12.5 µM; protein concentration 2 µM
Structures can show the parent of a compound that is named as a salt.
Respond with T for thermal shift delta Tm values of 0.6 °C and above, F for values below.

Exam item: decide whether the reported thermal shift delta Tm for "CN1CCCN(C(=O)c2cccc(-c3ccc(/C=C4/C(=O)Nc5ccc(Cl)cc54)o3)c2)CC1" is at least 0.6 °C.
T

Is it the case that "Cc1nc(Nc2ncc(C(=O)Nc3c(C)cccc3Cl)s2)cc(N2CCN(CCO)CC2)n1" has thermal shift delta Tm reaching or exceeding 0.6 °C?
T

Is the recorded value of thermal shift delta Tm equal to or greater than 0.6 °C for this molecule? "COC(=O)Nc1ccc(-c2nc(N3CCOCC3)c3cnn(C4CCN(C(=O)OC)CC4)c3n2)cc1"
F

Is thermal shift delta Tm at least 0.6 °C? Consider "COc1cc(OC)cc(N(CCNC(C)C)c2ccc3ncc(-c4cnn(C)c4)nc3c2)c1"
F

API: above_or_equal(metric=thermal shift delta Tm, cutoff=0.6 °C) for item "Cn1cc(-c2cnn3c(N)c(Br)c([C@@H]4CCCNC4)nc23)cn1"
F

Hello, I need to know if "O=C(c1ccc(Nc2nccc(-c3cc4ccccc4s3)n2)cc1)N1CCC(N2CCCC2)CC1" has measured thermal shift delta Tm not below 0.6 °C. Thanks!
T

Determine whether this molecule has thermal shift delta Tm no lower than 0.6 °C: COc1cc2c(c(OC)c1OC)-c1c(cc3c(c1OC)OCO3)CC(C)C(C)C2 (stereo not drawn) [Schisandrin B (Sch B)]
T

Is the recorded value of thermal shift delta Tm equal to or greater than 0.6 °C for this molecule? "Cn1cc(C2=C(c3ccc(Cl)cc3Cl)C(=O)NC2=O)c2ccccc21"
T

Say whether "CC(C)(C)S(=O)(=O)c1ccc2nccc(Nc3n[nH]c4ccc(F)cc34)c2c1" shows thermal shift delta Tm of 0.6 °C or more.
F

Does thermal shift delta Tm meet or surpass 0.6 °C for "CCN(C)S(=O)(=O)Nc1ccc(F)c(C(=O)c2c[nH]c3ncc(-c4cnc(C5CC5)nc4)cc23)c1F" ?
T

Item "Oc1ccc(-c2nc(-c3ccc(F)cc3)c(-c3ccncc3)[nH]2)cc1" with thermal shift delta Tm of 0.6 °C or above?
T

Threshold query (thermal shift delta Tm >= 0.6 °C) on "Nc1[nH]nc2nnc(-c3c(-c4ccccc4)nn4ccccc34)cc12"
F

Is reported thermal shift delta Tm greater than or equal to 0.6 °C here: "CCCCCCCCCCCCCCCCCCOP(=O)([O-])OC1CC[N+](C)(C)CC1"
F

In plain terms: is recorded thermal shift delta Tm at least 0.6 °C for N=C(N)NC(=N)NCCc1ccccc1 [Phenformin HCl] ?
F

Could you please find out whether "COc1ccc(-c2nc(N3CCOCC3)c3sc(CN(C)c4ncc(C(=O)NO)cn4)cc3n2)cn1" has thermal shift delta Tm that meets 0.6 °C or exceeds it?
T

Is it the case that "Cn1c(Nc2ccc(C(F)(F)F)cc2)nc2cc(Oc3ccnc(-c4ncc(C(F)(F)F)[nH]4)c3)ccc21" has thermal shift delta Tm reaching or exceeding 0.6 °C?
T

Identify whether the reported thermal shift delta Tm of the following molecule is 0.6 °C or greater: "Cc1ccccc1-n1c(Cn2nc(-c3cccc(O)c3)c3c(N)ncnc32)nc2cccc(C)c2c1=O"
T
